meta.source: patent US20050215544A1

Provide the recorded Combination Indices at 50% HIV Inhibition (Confidence Interval) for the entries that follow.
System: HIV-1 LAI
MEASUREMENT_DESCRIPTION: Two-drug combination antiviral assay with Compound 1 (combination indices, Chou and Rideout)
Assay type: cell-based
MEASUREMENT_CONDITIONS: combination with Compound 1; EC50 ratio 2.5:1 (Compound 1 to comparator); 95% CI in parenthesis

Task: Suppose we examine the molecule "COC(=O)N[C@H](C(=O)N[C@@H](Cc1ccccc1)[C@@H](O)CN(Cc1ccc(-c2ccccn2)cc1)NC(=O)[C@@H](NC(=O)OC)C(C)(C)C)C(C)(C)C" ; what Combination Indices at 50% HIV Inhibition (Confidence Interval) value has been reported?
Result: 0.08 (0.07, 0.09)

Task: Sample "CC(C)Nc1cccnc1N1CCN(C(=O)c2cc3cc(NS(C)(=O)=O)ccc3[nH]2)CC1" — what was its Combination Indices at 50% HIV Inhibition (Confidence Interval)?
Result: 0.56 (0.28, 0.84)

Task: What does the record list as Combination Indices at 50% HIV Inhibition (Confidence Interval) for "Cc1ccnc2c1NC(=O)c1cccnc1N2C1CC1" ?
Result: 0.37 (0.29, 0.44)

---

I'd appreciate it if you could supply Combination Indices at 75% HIV Inhibition (Confidence Interval) values for the items below.
System: HIV-1 LAI
MEASUREMENT_DESCRIPTION: Two-drug combination antiviral assay with Compound 1 (combination indices, Chou and Rideout)
Format: cell-based
MEASUREMENT_CONDITIONS: combination with Compound 1; EC50 ratio 2.5:1 (Compound 1 to comparator); 95% CI in parenthesis

Task: If you can, please state the reported Combination Indices at 75% HIV Inhibition (Confidence Interval) value of "C[C@H](Cn1cnc2c(N)ncnc21)OCP(=O)(O)O" .
Result: 0.22 (0.17, 0.28)

Task: If you can, please state the reported Combination Indices at 75% HIV Inhibition (Confidence Interval) value of "CC(C)Nc1cccnc1N1CCN(C(=O)c2cc3cc(NS(C)(=O)=O)ccc3[nH]2)CC1" .
Result: 0.51 (0.16, 0.86)

Task: Returns the measured Combination Indices at 75% HIV Inhibition (Confidence Interval) for the input compound. Input: "COC(=O)N[C@H](C(=O)N[C@@H](Cc1ccccc1)[C@@H](O)CN(Cc1ccc(-c2ccccn2)cc1)NC(=O)[C@@H](NC(=O)OC)C(C)(C)C)C(C)(C)C"
Result: 0.14 (0.12, 0.17)
